From: patent US11453697B1

target: full-length HAQ STING (Homo sapiens (Human), UniProt Q86WV6, G230A/H232R/R293Q/R71H); test: 3H-cGAMP filtration binding assay (HAQ STING); conditions: competition with tritiated cGAMP, HAQ STING membrane; read-out: EC50 (nM), 3H-cGAMP filtration binding assay for HAQ STING
Sequence (Q86WV6 other isoform, or with tags, fused parts or gaps, stated change not applied): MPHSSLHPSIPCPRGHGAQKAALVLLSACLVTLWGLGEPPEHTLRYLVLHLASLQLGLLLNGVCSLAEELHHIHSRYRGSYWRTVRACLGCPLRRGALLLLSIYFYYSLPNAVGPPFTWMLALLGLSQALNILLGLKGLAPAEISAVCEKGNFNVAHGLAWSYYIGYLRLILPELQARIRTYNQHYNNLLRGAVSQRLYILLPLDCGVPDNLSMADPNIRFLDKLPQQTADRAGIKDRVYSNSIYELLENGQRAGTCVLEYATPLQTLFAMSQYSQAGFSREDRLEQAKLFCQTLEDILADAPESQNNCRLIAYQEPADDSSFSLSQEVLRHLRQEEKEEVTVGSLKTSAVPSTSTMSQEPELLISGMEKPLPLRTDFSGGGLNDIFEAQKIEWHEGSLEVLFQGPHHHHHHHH
EC50 values by entry
Use nM as the unit, but write only the number.

// known answers, use as guide
1) Nc1nc2c(ncn2[C@@H]2O[C@@H]3COP(=O)(O)O[C@H]4[C@H](F)[C@H](n5cnc6c(=O)[nH]cnc65)O[C@@H]4COP(=O)(O)O[C@@H]2C3)c(=O)[nH]1 [Example 312]    122
2) Nc1ncnc2c1ccn2[C@@H]1O[C@@H]2COP(=O)(O)O[C@@H]3[C@H](O)[C@@H](COP(=O)(O)O[C@H]2[C@H]1O)O[C@H]3n1cnc2c(=O)[nH]cnc21 [Example 35]    7.9
3) Nc1nc2c(ncn2[C@@H]2O[C@@H]3COP(=O)(S)O[C@H]4[C@@H](O)[C@H](n5ccc6c(N)ncnc65)O[C@@H]4COP(=O)(S)O[C@@H]2C3)c(=O)[nH]1 (single isomer, unassigned) [Example 78]    14.6

Below: the item to evaluate.
// query EC50 value for entry Nc1nc2c(ccn2[C@@H]2O[C@@H]3COP(=O)(O)O[C@H]4[C@@H](O)[C@H](n5ccc6c(N)ncnc65)O[C@@H]4COP(=O)(O)O[C@@H]2[C@@H]3O)c(=O)[nH]1 [Example 37]
620
